target: Glycogen synthase kinase-3 beta (Homo sapiens) (UniProt P49841); assay: NPC library primary assay, GSK-3β enzyme inhibitors, biochemical, Homo sapiens, LANCE Ultra TR-FRET detection (AID 1117355); settings: LANCE Ultra TR-FRET kinase activity; at 20 µM (top of the series)
Sequence (P49841 whole entry, looked up): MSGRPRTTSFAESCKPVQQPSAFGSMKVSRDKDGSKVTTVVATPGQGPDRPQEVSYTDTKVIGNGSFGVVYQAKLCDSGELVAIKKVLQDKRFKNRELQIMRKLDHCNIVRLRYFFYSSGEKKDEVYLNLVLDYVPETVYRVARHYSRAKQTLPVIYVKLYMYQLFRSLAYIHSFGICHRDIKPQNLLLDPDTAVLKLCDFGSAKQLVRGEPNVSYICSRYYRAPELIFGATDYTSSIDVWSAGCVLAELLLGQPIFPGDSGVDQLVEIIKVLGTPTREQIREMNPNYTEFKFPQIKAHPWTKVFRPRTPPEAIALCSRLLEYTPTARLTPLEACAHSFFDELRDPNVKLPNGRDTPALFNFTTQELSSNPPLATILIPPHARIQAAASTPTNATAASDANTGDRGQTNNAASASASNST
Activity calls are given as the source filed them. How the calls were made is not given here.
readout: inhibition

A selection of reference data follows.
{"columns": ["compound", "inhibition"],
 "data": [
  ["Nc1ccc2cc3ccc(N)cc3nc2c1", "-57.5% (inactive)"],
  ["NC(=NCCCCCCN=C(N)/N=C(\\N)Nc1ccc(Cl)cc1)/N=C(\\N)Nc1ccc(Cl)cc1", "0.77% (inactive)"]
]}

Field: next compound
Sample CCC(C)n1ncn(-c2ccc(N3CCN(c4ccc(OC[C@H]5CO[C@](Cn6cncn6)(c6ccc(Cl)cc6Cl)O5)cc4)CC3)cc2)c1=O (stereo partly drawn) , system: Glycogen synthase kinase-3 beta (Homo sapiens) (UniProt P49841). Its inhibition is 14.1% (inactive)

Provenance of the data: PubChem BioAssay AID1117355
